# testProtocol: Viability qHTS for inhibitors of the SERCaMP assay screened against the NCATS CANVASS Library (AID 1347400); further: nearly all actives have a fitted effect of over 70% in size; further: potency means the concentration at half of the fitted maximal effect
# testContext: SH-SY5Y SERCaMP cells viability, CellTiter-Glo, 48 h; series mostly up to 92.2 µM
# Source text: Natural products and their derivatives continue to be wellsprings of nascent therapeutic potential. […] To address this issue, the Canvass library of natural products was assembled (https://tripod.nih.gov/canvass), in collaboration with academic and industry researchers, for quantitative high-throughput screening (qHTS) across a diverse set of cell-based and biochemical assays. […]
Inconclusive results are not listed. Active and inactive are the calls of the source. The call rests on the fitted dose curve; in most records, active means well fitted cell-killing curve with a large enough effect; inconclusive means small, poorly fitted or top-dose-only effect; inactive means flat fitted curve, though single readings scatter.
assayMetric: Potency

compound	Potency
CC(C)=CCC[C@@H](C)[C@@H]1CC[C@@]2(C)C[C@H]3C(C)=CC(=O)[C@@H]3/C(C=O)=C\C[C@H]12	42.8 µM (active)
CC[C@@H]1C[C@@]2(CC)OC(=O)[C@@]3(CC)OC(=O)[C@@H]1[C@@H]23	inactive
O=C(O)CC1OCc2c(O)cccc21 (stereo not given)	inactive
C=C1C(=O)O[C@H]2[C@H]1CC/C(CO)=C\CC[C@@]1(C)O[C@@H]21	34 µM (active)

# input for lookup
Exercise: For the compound C[C@@]12CCC[C@@](C)(C(=O)O)[C@H]1C[C@@H](O)[C@]13C[C@H]4C[C@H](O[C@@]4(C)C1)[C@@H]23 , what Potency is on record?
Solution: inactive

----------
# tgt: Alpha-galactosidase A (Homo sapiens)
# testProtocol: Counterscreen for Glucocerebrosidase Inhibitors: qHTS Assay for Human alpha-Galactosidase at pH 4.5 (AID 992); further: 0% is about no effect
# testContext: purified enzyme, fluorogenic substrate; series mostly up to 76.9 µM
Activity calls are given as the source filed them. Calls come from the whole dose curve; as a rule, active = well fitted curve in the direction sought with a large enough effect; inactive = no such curve, though single readings can be large or run the other way.
assayMetric: outcome

Would you please look over these solved cases?
smilesData	assayMetric	valueReported
CC(N)=NCCC[C@H](N)C(=O)O	outcome	inactive
O=C(Nc1cc(C(=O)Nc2ccc(S(=O)(=O)O)cc2S(=O)(=O)O)cc(C(=O)Nc2ccc(S(=O)(=O)O)cc2S(=O)(=O)O)c1)Nc1cc(C(=O)Nc2ccc(S(=O)(=O)O)cc2S(=O)(=O)O)cc(C(=O)Nc2ccc(S(=O)(=O)O)cc2S(=O)(=O)O)c1	outcome	inactive
CC[C@H](C)N(C)C(=O)c1cc2ccccc2c(-c2ccccc2Cl)n1	outcome	inactive
Nc1c(S(=O)(=O)O)cc(Nc2ccc(Nc3nc(Cl)nc(Nc4ccc(S(=O)(=O)O)cc4)n3)c(S(=O)(=O)O)c2)c2c1C(=O)c1ccccc1C2=O	outcome	inactive

Exercise: For the compound CC(=O)N[C@@H](C(=O)O)C(C)(C)SN=O , what outcome is on record?
Solution: inactive

Exercise: What do you have for Cc1cccc(C)c1NC(=O)C[N+](C)(C)C ?
Solution: inactive

Exercise: What do you have for COc1[nH]c2ccc(F)cc2c1C(=O)OCC1CCN(CCNS(C)(=O)=O)CC1 ?
Solution: inactive

Exercise: What do you have for CSc1ccc2c(c1)[C@H](N1CCN(C)CC1)Cc1ccccc1S2 ?
Solution: inactive

Exercise: What do you have for CCOC(=O)[C@@]12C[C@@H]1/C(=N/O)c1ccccc1O2 ?
Solution: inactive

----------
# tgt: Calcium and integrin-binding protein 1 (Homo sapiens)
# testProtocol: Primary qHTS for Identification of Calcium Integrin Binding Protein 1 (CIB1) Competitor (AID 1508620);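 further: GST tagged CIB1 binding a fluorescein labelled alphaIIb integrin peptide tracer; top concentration of the series differs between compounds; on the % scale 0 is the no-effect control and ±100 the full control effect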
# testContext: CIB1-GST / FITC-alphaIIb peptide fluorescence polarization; series mostly up to 114 µM
Inconclusive results are not listed. Active and inactive are the calls of the source. Calls come from the whole dose curve; as a rule, active = well fitted inhibition curve with a large enough effect; inconclusive = small, poorly fitted or top-dose-only effect; inactive = flat fitted curve, though single readings scatter.

compound	outcome
COc1cc2ncnc(Oc3cccc(NC(=O)Nc4cc(C(C)(C)C(F)(F)F)on4)c3)c2cc1OC	inactive
CC[C@H]1OC(=O)[C@H](C)[C@@H](O[C@H]2C[C@@](C)(OC)[C@@H](O)[C@H](C)O2)[C@H](C)[C@@H](O[C@@H]2O[C@H](C)C[C@H](N(C)C)[C@H]2O)[C@](C)(O)C[C@@H](C)/C(=N/OCOCCOC)[C@H](C)[C@@H](O)[C@]1(C)O	inactive
CC(=O)N1c2ccc(-c3ccc(C(=O)O)cc3)cc2C(Nc2ccc(Cl)cc2)CC1C (stereo not drawn)	inactive

----------
# testProtocol: HEK-293 Cancer Cell Toxicity qHTS against the NCATS CANVASS Library (AID 1347355); further: nearly all actives have a fitted effect of over 65% in size
# testContext: HEK-293 viability, CellTiter-Glo luminescence, 72 h; series mostly up to 46.1 µM
Records with an inconclusive call do not appear. The source made the active and inactive calls. Calls come from the whole dose curve; as a rule, active = well fitted cell-killing curve with a large enough effect; inconclusive = small, poorly fitted or top-dose-only effect; inactive = flat fitted curve, though single readings scatter.
Write down the outcome that applies. Available outcomes: 1 (active), -1 (inactive)

Reference set (5 entries):
compound	answerLabel
CCC[C@@H](C)/C=C(\C)[C@H](O)[C@H](C)/C=C/CC[C@@H](O)[C@H](C)[C@H](O)[C@H](C)[C@H](O)[C@H](C)[C@H]1O[C@H]([C@H](C)C(=O)O)CC[C@@H]1C	1
C[C@@H](CCC[C@]1(C)C(=O)C=C[C@]23C[C@H]4C[C@H](O[C@@]4(C)C2)C31)C(=O)N[C@@H](CO)C(=O)O (some centres not stated)	-1
C[C@@H](O)[C@H]1OC(=O)C=C2[C@]3(C)[C@H]4[C@H](OC(=O)[C@@]4(C)[C@@H](O)[C@H]4O[C@H]43)[C@H]3O[C@@]231	1
CN1C(=O)C2C(N=CN2C)N(C)C1=O (configuration not stated)	-1
C[C@@]12C[C@@H](C[C@H]3C(=O)O[C@@H](c4ccoc4)[C@H](OC(=O)c4ccccc4)[C@@H]31)OC2=O	-1

Exercise: What did the test return for C/C(=C\[C@H](C)C(=O)CCCC1CC(=O)NC(=O)C1)[C@@H]1OC(=O)/C=C/CC/C=C/C[C@@H](O)[C@@H]1C ?
Solution: 1

Exercise: What do you have for C[C@@]12CCC[C@@](C)(C(=O)O)[C@H]1CC[C@]13C[C@H]4C[C@H](O[C@@]4(C)C1)[C@H]32 ?
Solution: -1

----------
# tgt: Nicotinamide N-methyltransferase (Homo sapiens)
# testProtocol: Confirmatory Screen for Target Class Profiling of Small Molecule Inhibitors of Methyltransferases (AID 1745852)
# testContext: MTase-Glo luminescence, SAH detection, recombinant enzyme; measured here: NNMT max response; stronger effect = lower value
assayMetric: activity (%)
Dear colleague, please return just the value in %, with no unit written.

Would you please look over these solved cases?
compound	tgt	activity, %
Nc1ccc(-c2cnc(N)c(-c3ccc(Cl)cc3)c2)cn1	Nicotinamide N-methyltransferase (Homo sapiens)	-33.1
Cc1ccn(-c2cc(Cl)ccc2[C@@H](Oc2cc(-c3ccc(C[C@H](N)C(=O)O)cc3)nc(N)n2)C(F)(F)F)n1	Nicotinamide N-methyltransferase (Homo sapiens)	-31.2
CN(C)CCCNc1nc(CN2CCN(C(c3ccc(Cl)cc3)c3ccc(Cl)cc3)CC2)nc2ccccc12	Nicotinamide N-methyltransferase (Homo sapiens)	-46.9
S=c1ssc2c1CCC2	Nicotinamide N-methyltransferase (Homo sapiens)	-69.9
C[C@H](Cc1ccccc1)Nc1ncnc2c1ncn2[C@@H]1O[C@H](CO)[C@@H](O)[C@H]1O	Nicotinamide N-methyltransferase (Homo sapiens)	4.48

Exercise: For the compound CC1=CC(=O)[C@@]2(C(C)C)C[C@@H]12 , what activity is on record?
Solution: -30.7

Exercise: What do you have for Oc1cc2c(c(Cl)c1O)CCNCC2c1ccccc1 (configuration not stated) ?
Solution: -10.3

----------
The entries below are paired with their reported activity change, negative = inhibition.
# testProtocol: qHTS Assay for Lipid Storage Modulators (AID 1519); further: on the % scale 0 is the no-effect control and ±100 the full control effect
# testContext: Drosophila S3 cells, BODIPY lipid droplet/cell ratio, laser cytometry; at 57.5 µM (top of the series); cells loaded with oleic acid
Results filed as inconclusive are left out. Activity calls are given as the source filed them. Calls follow the shape of the full dose curve.

Would you please look over these solved cases?
molecule	activity change, negative = inhibition
NCCCNCCCCN(CCCN)/[N+]([O-])=N/O	-0.752% (inactive)
N#Cc1ccccc1OC[C@H](O)CNCCNC(=O)Nc1ccccc1	0.479% (inactive)
O=C(Nc1cc(C(=O)Nc2ccc(S(=O)(=O)O)cc2S(=O)(=O)O)cc(C(=O)Nc2ccc(S(=O)(=O)O)cc2S(=O)(=O)O)c1)Nc1cc(C(=O)Nc2ccc(S(=O)(=O)O)cc2S(=O)(=O)O)cc(C(=O)Nc2ccc(S(=O)(=O)O)cc2S(=O)(=O)O)c1	10.5% (inactive)

Exercise: For the molecule C=C[C@@]1(C)CC(=O)[C@@]2(O)[C@@]3(C)[C@@H](O)CCC(C)(C)[C@@H]3[C@H](O)[C@H](OC(C)=O)[C@@]2(C)O1 , what activity change, negative = inhibition is on record?
Solution: -0.114% (inactive)

Exercise: What do you have for C[C@@](N)(C(=O)O)c1ccc(S(=O)(=O)O)cc1 ?
Solution: -0.133% (inactive)

Exercise: What do you have for CC(=O)Nc1ccc(OC[C@@H](O)CNC(C)C)cc1 ?
Solution: -10.4% (inactive)

Exercise: What do you have for CCCn1c(=O)c2[nH]c(-c3ccc(OCC(=O)Nc4ccc(C#N)cc4)cc3)nc2n(CCC)c1=O ?
Solution: 1.01% (inactive)
